target: EP2 receptor (Homo sapiens); assay: Schild regression of PGE2-induced EP2 activation in C6G-EP2 cells; assay type: cell-based; design: expressed in transfected cells; host or cells: C6G-EP2 cells; conditions: additional compounds tables; read-out: EP2 KB
Sequence (P43116 whole entry): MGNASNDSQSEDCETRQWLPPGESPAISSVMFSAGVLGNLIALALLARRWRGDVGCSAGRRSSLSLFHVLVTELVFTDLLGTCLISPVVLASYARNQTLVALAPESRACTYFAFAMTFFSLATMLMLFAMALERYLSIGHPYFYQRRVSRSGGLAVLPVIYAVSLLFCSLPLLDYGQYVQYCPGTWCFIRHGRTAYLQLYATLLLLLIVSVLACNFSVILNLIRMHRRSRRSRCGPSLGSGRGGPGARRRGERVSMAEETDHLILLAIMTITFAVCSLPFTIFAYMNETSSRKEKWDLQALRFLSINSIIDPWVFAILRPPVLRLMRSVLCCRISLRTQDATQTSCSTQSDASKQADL
Value type: Kb (nM)

Illustrative cases are given below, each with its answer.
>>> recorded_value("Cc1cc(/C=C/C(=O)NCCn2c(C)cc3ccccc32)cc(C)c1F")
4.4
>>> recorded_value("Cc1cc2ccccc2n1CCNC(=O)c1nc2cc(F)ccc2[nH]1")
128
>>> recorded_value("COc1cc(/C=C/C(=O)NCCc2c(C)[nH]c3ccccc23)cc(OC)c1OC")
2.9

[I] COc1cc(/C=C/C(=O)NCCc2c(C)oc3ccccc23)cc(OC)c1OC
[II] COc1ccc(/C=C/C(=O)NCCc2c(C)[nH]c3ccccc23)cc1OC
[III] CC(=O)Nc1ccc(C(=O)NCCc2c(C)[nH]c3ccccc23)cc1
[IV] Cc1cc2ccccc2n1CCNC(=O)c1c[nH]c2c(F)cccc2c1=O
[V] Cc1cc2ccccc2n1CCNC(=O)c1ccc(N2CCN(C)CC2)c(F)c1
Output the entries ranked by Kb from maximum down to minimum. Give the labels in the order specified.
IV, I, III, V, II
